Data provenance: patent US9605005B2

Items are presented alongside their recorded Ki.
test_system: nuclear factor-kappa B (NF-kB)-inducing kinase (NIK) (Homo sapiens (Human))
method_notes: NIK enzyme inhibition assay (Transcreener ADP, NIK ADP-FP)
Assay type: biochemical
condition_info: purified NIK 0.5 nM, 10 μM ATP, fluorescence polarization; read-out: NIK ADP-FP (Ki μM)
measured_quantity: Ki

| input_smiles | result_value |
| --- | --- |
| CN1CC[C@@](O)(C#Cc2ccnc(-n3nc(C(N)=O)c4c(F)cccc43)c2)C1=O | 0.00119 µM |
| CN1CC[C@@](O)(C#Cc2ccnc(-n3nc(C(N)=O)c4c3CC(C)(C)[C@@H](OCc3ccccc3)C4)c2)C1=O | 0.0455 µM |
| CN1CC[C@@](O)(C#Cc2ccc(F)c(-n3nc(C(N)=O)c4c3COC4)c2)C1=O | 0.00111 µM |
| NC(=O)c1nn(-c2cccc(C#C[C@@]3(O)CCCC3=O)c2)c2ccccc12 | 0.0861 µM |

---

test_system: UniProt Q99558
method_notes: NIK enzyme inhibition assay (Transcreener ADP, NIK ADP-FP)
Type: biochemical
condition_info: purified NIK 0.5 nM, 10 μM ATP, fluorescence polarization; read-out: NIK ADP-FP (Ki μM)
Measured Ki values are reported for all entries that follow.

| input_smiles | Ki (µM) |
| --- | --- |
| CN1CC[C@@](O)(C#Cc2cc(F)cc(-n3nc(C(N)=O)c4cccnc43)c2)C1=O | 0.00086 |
| CN1CC[C@@](O)(C#Cc2cccc(-n3nc(C(N)=O)c4c3[C@H](O)CC4)c2)C1=O | 0.00296 |
| COc1ncc2c(C(N)=O)nn(-c3cccc(C#C[C@]4(O)CCN(C)C4=O)c3)c2n1 | 0.00013 |
| CCOC(=O)N1CCc2c(c(C(N)=O)nn2-c2cc(C#C[C@]3(O)CCN(C)C3=O)ccn2)C1 | 0.00023 |

---

test_system: nuclear factor-kappa B (NF-kB)-inducing kinase (NIK) (Homo sapiens (Human), UniProt Q99558)
Sequence (Q99558 whole entry): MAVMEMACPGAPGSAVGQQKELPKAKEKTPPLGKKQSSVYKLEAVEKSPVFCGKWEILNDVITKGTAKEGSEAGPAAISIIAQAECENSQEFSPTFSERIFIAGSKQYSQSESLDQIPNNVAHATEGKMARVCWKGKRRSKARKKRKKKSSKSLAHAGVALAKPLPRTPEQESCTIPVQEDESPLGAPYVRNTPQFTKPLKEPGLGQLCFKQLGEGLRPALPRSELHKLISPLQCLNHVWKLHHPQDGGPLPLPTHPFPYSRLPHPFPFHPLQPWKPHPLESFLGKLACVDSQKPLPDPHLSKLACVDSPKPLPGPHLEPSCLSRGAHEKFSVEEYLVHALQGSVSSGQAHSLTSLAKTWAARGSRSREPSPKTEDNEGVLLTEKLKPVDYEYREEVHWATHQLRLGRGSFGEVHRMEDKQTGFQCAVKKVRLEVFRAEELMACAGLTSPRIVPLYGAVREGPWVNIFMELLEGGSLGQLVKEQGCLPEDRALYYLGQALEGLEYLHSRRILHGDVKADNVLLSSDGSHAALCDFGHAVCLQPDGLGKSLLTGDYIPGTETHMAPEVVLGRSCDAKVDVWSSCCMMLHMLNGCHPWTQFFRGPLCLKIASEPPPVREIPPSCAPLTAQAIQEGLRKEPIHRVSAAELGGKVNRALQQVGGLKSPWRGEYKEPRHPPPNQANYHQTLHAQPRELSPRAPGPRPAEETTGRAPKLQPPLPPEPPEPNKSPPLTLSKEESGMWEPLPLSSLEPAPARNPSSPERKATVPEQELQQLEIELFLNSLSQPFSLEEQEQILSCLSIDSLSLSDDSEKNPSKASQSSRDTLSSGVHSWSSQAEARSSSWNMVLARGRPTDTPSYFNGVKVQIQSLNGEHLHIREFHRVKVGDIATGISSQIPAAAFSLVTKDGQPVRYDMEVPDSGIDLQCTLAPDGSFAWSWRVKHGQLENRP
method_notes: NIK enzyme inhibition assay (Transcreener ADP, NIK ADP-FP)
Assay type: biochemical
condition_info: purified NIK 0.5 nM, 10 μM ATP, fluorescence polarization; read-out: NIK ADP-FP (Ki μM)
# key: entry, value: Ki
measured_quantity: Ki (pM)

| input_smiles | result_value |
| --- | --- |
| CN1CC[C@@](O)(C#Cc2cccc(-n3nc(C(N)=O)c4c3NCCC4)c2)C1=O | 290 |
| CN1CC[C@@](O)(C#Cc2cccc(-n3nc(C(N)=O)c4cnc(C#N)cc43)c2)C1=O | 1310 |
| CNc1nccc2c1c(C(N)=O)nn2-c1cccc(C#C[C@]2(O)CCN(C)C2=O)c1 | 50 |
| CCOc1cc2c(cn1)c(C(N)=O)nn2-c1cccc(C#C[C@]2(O)CCN(C)C2=O)c1 | 390 |
| C[C@H]1CCc2c1c(C(N)=O)nn2-c1cccc(C#C[C@]2(O)CCN(C)C2=O)c1 | 550 |
| CN1CC[C@@](O)(C#Cc2ccnc(-n3nc(C(N)=O)c4c3C[C@@H](O)CC4)c2)C1=O | 5470 |
| CN1C[C@@H](O)[C@@](O)(C#Cc2cccc(-n3nc(C(N)=O)c4ccccc43)c2)C1=O | 591000 |
| CN1CC[C@@](O)(C#Cc2ccnc(-n3nc(C(N)=O)c4c3C3CC(C4)C3)c2)C1=O | 18700 |

---

This listing pairs molecules with measured IC50.
Test system: p52 (NF-kB2) nuclear translocation, HeLa cells
method_notes: p52 (NF-kB2) nuclear translocation assay in HeLa cells (non-classical NF-kB signaling, anti-lymphotoxin beta receptor antibody stimulated)
Assay type: cell-based
condition_info: Homo sapiens, 100 ng/mL anti-lymphotoxin beta receptor antibody for 5 hours, read-out: p52 HeLa Transloc Assay (IC50)
measured_quantity: IC50 (µM)

| input_smiles | result_value |
| --- | --- |
| COc1ccc2c(C(N)=O)nn(-c3cccc(C#C[C@]4(O)CCN(C)C4=O)c3)c2c1 | 0.0948 |
| CN1CC[C@@](O)(C#Cc2cccc(-n3nc(C(N)=O)c4ccc(-c5cnn(C)c5)nc43)c2)C1=O | 0.0957 |
| Cc1ccc2c(C(N)=O)nn(-c3cccc(C#C[C@]4(O)CCN(C)C4=O)c3)c2n1 | 0.135 |
| COc1cc(C#C[C@]2(O)CCN(C)C2=O)cc(-n2nc(C(N)=O)c3cccnc32)c1 | 0.119 |
| CN1CC[C@@](O)(C#Cc2cccc(-n3nc(C(N)=O)c4cc(F)ccc43)c2)C1=O | 0.073 |
| CN1CC[C@@](O)(C#Cc2cc(-n3nc(C(N)=O)c4cccnc43)cc(C(F)(F)F)c2)C1=O | 0.164 |
| CN1CC[C@@](O)(C#Cc2cccc(-c3nc(C(N)=O)n4cc(CN5CCOCC5)ccc34)c2)C1=O | 0.156 |

---

Tested on: REL-A (p65) nuclear translocation, HeLa cells
method_notes: REL-A (p65) nuclear translocation assay in HeLa cells (classical NF-kB signaling, TNF-α stimulated)
Type: cell-based
condition_info: Homo sapiens, 0.5 h; HeLa cells, 10 ng/mL TNF-α for 30 minutes; read-out: REL-A HeLa Transloc Assay (IC50)
Catalogue of IC50 readings, one per entry.
measured_quantity: IC50 (µM)

| molecule | op | result_value |
| --- | --- | --- |
| CN1CC[C@@](O)(C#Cc2cccc(-c3nc(C(N)=O)n4c3CCCC4)c2)C1=O [Compound 177] | > | 2 |
| CN1CC[C@@](O)(C#Cc2ccnc(-n3nc(C(N)=O)c4c3C[C@@]3(C)C[C@H]3C4)c2)C1=O [Compound 6] | = | 10 |
| C[C@@H]1CCc2c1c(C(N)=O)nn2-c1cccc(C#C[C@]2(O)CCN(C)C2=O)c1 [Compound 109] | = | 20 |
| Cc1cc2c(C(N)=O)nn(-c3cccc(C#C[C@]4(O)CCN(C)C4=O)c3)c2cn1 [Compound 149] | = | 20 |

---

test_system: nuclear factor-kappa B (NF-kB)-inducing kinase (NIK) (Homo sapiens (Human), UniProt Q99558)
method_notes: NIK enzyme inhibition assay (Transcreener ADP, NIK ADP-FP)
Type: biochemical
condition_info: purified NIK 0.5 nM, 10 μM ATP, fluorescence polarization; read-out: NIK ADP-FP (Ki μM)
Reported Ki by item:

| compound | Ki, nM |
| --- | --- |
| NC(=O)c1nn(-c2cccc(C#C[C@]3(O)CCOC3=O)c2)c2ccccc12 [Compound 171] | 8.12 |
| CN1CC[C@@](O)(C#Cc2cccc(-n3nc(C(N)=O)c4c3CCN(c3nccs3)C4)c2)C1=O [Compound 122] | 0.29 |
| CN1CC[C@@](O)(C#Cc2ccnc(-n3nc(C(N)=O)c4c3C[C@@]3(C)C[C@H]3C4)c2)C1=O [Compound 6] | 7.78 |
| Cc1cc([C@](C)(O)C#Cc2ccnc(-n3nc(C(N)=O)cc3C)c2)no1 [Compound 80] | 84.5 |
| CN1CC[C@@](O)(C#Cc2cccc(-c3csc(C(N)=O)n3)c2)C1=O [Compound 89] | 1.65 |
| CN1CC[C@@](O)(C#Cc2cccc(-n3nc(C(N)=O)c4ccc(F)cc43)c2)C1=O [Compound 189] | 0.05 |
| NC(=O)c1nn(-c2cccc(C#C[C@@]3(O)CCOC3=O)c2)c2ccccc12 [Compound 172] | 473 |
| CC(O)(C#Cc1cccc(-n2nc(C(N)=O)c3ccccc32)c1)c1nccs1 (single isomer, unassigned) [Compound 170] | 0.75 |
| Cc1cn(-c2ccc3c(c2)c(C(N)=O)nn3-c2cccc(C#C[C@]3(O)CCN(C)C3=O)c2)cn1 [Compound 106] | 0.05 |
| CN1CC[C@@](O)(C#Cc2cccc(-c3nc(C(N)=O)n4ccc(C#N)cc34)c2)C1=O [Compound 90] | 0.05 |
| COc1cc(C#C[C@]2(O)CCN(C)C2=O)cc(-n2nc(C(N)=O)c3cccnc32)c1 [Compound 73] | 1.05 |
| CN1CC[C@@](O)(C#Cc2cc(-n3nc(C(N)=O)c4cccnc43)cc(C(F)(F)F)c2)C1=O [Compound 36] | 5.53 |
| CN1C[C@H](O)[C@](O)(C#Cc2cccc(-n3nc(C(N)=O)c4ccccc43)c2)C1=O [Compound 128] | 1250 |
| CN1CC[C@@](O)(C#Cc2cccc(-n3nc(C(N)=O)c4c3CS(=O)(=O)CC4)c2)C1=O [Compound 68] | 237 |
| CN1CC[C@@](O)(C#Cc2ccnc(-n3nc(C(N)=O)c4c3C[C@]3(C)C[C@@H]3C4)c2)C1=O [Compound 5] | 13.9 |
| CN1CC[C@@](O)(C#Cc2cccc(-n3nc(C(N)=O)c4c3CCC[C@H]4NC(=O)C3CC3)c2)C1=O [Compound 32] | 1040 |
| CN1CC[C@@](O)(C#Cc2cc(-n3nc(C(N)=O)c4c3CCCC4)ccn2)C1=O [Compound 166] | 1.19 |
| CN1CC[C@@](O)(C#Cc2cccc(-n3nc(C(N)=O)c4c3CCN(C(=O)C3CC3)C4)c2)C1=O [Compound 20] | 4.89 |
| CN1CC[C@@](O)(C#Cc2cccc(-n3nc(C(N)=O)c4cnccc43)c2)C1=O [Compound 132] | 0.378 |
| CN1CC[C@@](O)(C#Cc2cccc(-n3nc(C(N)=O)c4cc(-c5ncc[nH]5)ccc43)c2)C1=O [Compound 182] | 1.51 |
